Hey, just so you know, these numbers are from ChEMBL document CHEMBL3585316.

target: Histone deacetylase 2 (Homo sapiens)
Sequence (Q92769 whole entry): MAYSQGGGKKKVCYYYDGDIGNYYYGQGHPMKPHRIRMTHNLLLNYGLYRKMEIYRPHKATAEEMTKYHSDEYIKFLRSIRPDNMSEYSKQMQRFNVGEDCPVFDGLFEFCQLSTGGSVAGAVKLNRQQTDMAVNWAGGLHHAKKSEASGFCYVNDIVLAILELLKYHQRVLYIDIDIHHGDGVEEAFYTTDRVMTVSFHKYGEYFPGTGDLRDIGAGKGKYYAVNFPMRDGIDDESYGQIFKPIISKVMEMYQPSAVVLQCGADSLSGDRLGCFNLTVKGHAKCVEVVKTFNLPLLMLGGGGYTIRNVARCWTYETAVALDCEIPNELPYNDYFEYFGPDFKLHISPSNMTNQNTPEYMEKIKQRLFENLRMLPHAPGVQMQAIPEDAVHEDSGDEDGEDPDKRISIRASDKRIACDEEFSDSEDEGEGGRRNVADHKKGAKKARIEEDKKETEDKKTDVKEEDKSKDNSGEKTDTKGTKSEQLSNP
procedure-text: Inhibition of recombinant HDAC2 (unknown origin) incubated for 10 mins using Boc-Lys(acetyl)-AMC fluorogenic substrate by homogeneous fluorescence release assay
result-type: pIC50
Please report pIC50 as the negative decimal logarithm of the molar concentration, giving only the number.

May I ask what pIC50 has been recorded for "COc1ccc(-c2noc(CCCCCCC(=O)C(F)(F)F)n2)cc1" ?
5.34

***
May I ask what pIC50 has been recorded for "Cc1ccc(-c2noc(CCCCCCC(=O)NO)n2)cc1" ?
5.56

May I ask what pIC50 has been recorded for "O=C(CCCCCCc1nc(-c2ccc(C(F)(F)F)cc2)no1)NO" ?
5.10

May I ask what pIC50 has been recorded for "Cc1ccc(-c2noc(CCCCCCC(=O)C(F)(F)F)n2)cc1" ?
5.14

----------
target: Histone deacetylase 1 (Homo sapiens)
procedure-text: Inhibition of recombinant HDAC1 (unknown origin) incubated for 10 mins using Boc-Lys(acetyl)-AMC fluorogenic substrate by homogeneous fluorescence release assay
result-type: pIC50
Please report pIC50 as the negative decimal logarithm of the molar concentration, giving only the number.

May I ask what pIC50 has been recorded for "COc1ccc(-c2noc(CCCCCCC(=O)NO)n2)cc1" ?
5.66

May I ask what pIC50 has been recorded for "COc1ccc(-c2noc(CCCCCCC(=O)C(F)(F)F)n2)cc1" ?
5.02

May I ask what pIC50 has been recorded for "COc1ccc(-c2noc(CCCCCCC(=O)Nc3ccccc3N)n2)cc1" ?
6.04

We now examine a further compound.
May I ask what pIC50 has been recorded for "O=C(CCCCCCc1nc(-c2cccc([N+](=O)[O-])c2)no1)C(F)(F)F" ?
5.40

----------
target: Histone deacetylase 1 (Homo sapiens, UniProt Q13547)
Sequence (Q13547 whole entry): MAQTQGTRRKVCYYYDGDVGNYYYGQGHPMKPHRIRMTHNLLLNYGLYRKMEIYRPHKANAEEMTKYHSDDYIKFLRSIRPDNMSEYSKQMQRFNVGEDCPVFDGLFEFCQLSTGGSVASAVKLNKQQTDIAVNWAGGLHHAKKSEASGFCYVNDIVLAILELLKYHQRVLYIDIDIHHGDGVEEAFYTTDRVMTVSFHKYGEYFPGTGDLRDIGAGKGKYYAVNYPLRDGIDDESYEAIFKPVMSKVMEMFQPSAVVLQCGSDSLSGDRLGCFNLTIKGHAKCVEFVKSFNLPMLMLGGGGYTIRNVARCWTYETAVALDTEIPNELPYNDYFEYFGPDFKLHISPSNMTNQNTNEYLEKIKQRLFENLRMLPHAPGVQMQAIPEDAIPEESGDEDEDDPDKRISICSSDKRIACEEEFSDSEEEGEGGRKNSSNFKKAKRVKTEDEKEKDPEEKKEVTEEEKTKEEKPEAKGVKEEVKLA
procedure-text: Inhibition of recombinant HDAC1 (unknown origin) incubated for 10 mins using Boc-Lys(acetyl)-AMC fluorogenic substrate by homogeneous fluorescence release assay
result-type: pIC50
Please report pIC50 as the negative decimal logarithm of the molar concentration, giving only the number.

May I ask what pIC50 has been recorded for "O=C(CCCCCCc1nc(-c2cccs2)no1)NO" ?
6.92

May I ask what pIC50 has been recorded for "Nc1ccccc1NC(=O)CCCCCCc1nc(-c2ccc([N+](=O)[O-])cc2)no1" ?
5.06

May I ask what pIC50 has been recorded for "Nc1ccccc1NC(=O)CCCCCCc1nc(-c2ccccc2Cl)no1" ?
5.38

May I ask what pIC50 has been recorded for "O=C(CCCCCCc1nc(-c2ccc([N+](=O)[O-])cc2)no1)NO" ?
7.15

May I ask what pIC50 has been recorded for "O=C(CCCCCCc1nc(-c2cccnc2)no1)NO" ?
7.10

***
May I ask what pIC50 has been recorded for "Nc1ccccc1NC(=O)CCCCCCc1nc(-c2ccc(Cl)cc2)no1" ?
5.81

----------
target: Histone deacetylase 1 (Homo sapiens, UniProt Q13547)
procedure-text: Inhibition of recombinant HDAC1 (unknown origin) incubated for 10 mins using Boc-Lys(acetyl)-AMC fluorogenic substrate by homogeneous fluorescence release assay
Parameter: pIC50. Scope: all listed entries.
Please report pIC50 as the negative decimal logarithm of the molar concentration, giving only the number.

Recorded results for 3 compounds are shown here.
May I ask what pIC50 has been recorded for "O=C(CCCCCCc1nc(-c2ccc(F)cc2)no1)NO" ?
5.94

May I ask what pIC50 has been recorded for "O=C(CCCCCCc1nc(-c2ccccc2Cl)no1)C(F)(F)F" ?
5.12

May I ask what pIC50 has been recorded for "Cc1ccc(-c2noc(CCCCCCC(=O)NO)n2)cc1" ?
6.31

***
May I ask what pIC50 has been recorded for "O=C(CCCCCCc1nc(-c2cccc([N+](=O)[O-])c2)no1)NO" ?
6.46

May I ask what pIC50 has been recorded for "Nc1ccccc1NC(=O)CCCCCCc1nc(-c2ccc(F)cc2)no1" ?
6.06

May I ask what pIC50 has been recorded for "O=C(CCCCCCc1nc(-c2ccc(C(F)(F)F)cc2)no1)C(F)(F)F" ?
5.08

May I ask what pIC50 has been recorded for "O=C(CCCCCCc1nc(-c2ccccc2)no1)NO" ?
6.42

May I ask what pIC50 has been recorded for "Cc1ccc(-c2noc(CCCCCCC(=O)Nc3ccccc3N)n2)cc1" ?
6.85

May I ask what pIC50 has been recorded for "Nc1ccccc1NC(=O)CCCCCCc1nc(-c2ccc(C(F)(F)F)cc2)no1" ?
5.52

May I ask what pIC50 has been recorded for "O=C(CCCCCCc1nc(-c2cccs2)no1)C(F)(F)F" ?
5.29

May I ask what pIC50 has been recorded for "O=C(CCCCCCc1nc(-c2ccccc2)no1)C(F)(F)F" ?
5.27

May I ask what pIC50 has been recorded for "O=C(CCCCCCc1nc(-c2ccccc2Cl)no1)NO" ?
6.72
